# Tested on: SNB-19 CNS
# test-method-notes: NCI-60 one-dose screen, 48 h (100 = growth as untreated, 0 = no growth, -100 = all killed)
# experimental-conditions: 10 µM unless noted
Compounds without any hit were thinned out: in the full panel of roughly 83,000, 20% have a hit.
Lab note: compare growth against 90%. Equal or greater, write 1 (yes). Smaller, write 0 (no).

Input: Answer whether growth of `COc1cc([C@H]2OC[C@H]3[C@@H]2CO[C@@H]3c2ccc(O)c(OC)c2)ccc1O` is greater than or equal to 90%.
Output: 1 (yes)

Input: Answer whether growth of `COc1ccc(/C=N\NC(=O)c2ccc3nc(-c4ccc(Br)cc4)[nH]c3c2)cc1` is greater than or equal to 90%.
Output: 0 (no)

Input: Answer whether growth of `c1cncc(-c2cn3nc(-c4c[nH]c5ccccc45)sc3n2)c1` is greater than or equal to 90%.
Output: 0 (no)

Input: Answer whether growth of CCOC(=O)C1=C(C)Nc2nc3ccccc3n2C1c1cccc(Br)c1 (configuration not stated) is greater than or equal to 90%.
Output: 0 (no)

Input: Answer whether growth of `C#C[C@]1(O)CC[C@H]2[C@@H]3CC=C4c5sc(C6CCOCC6)nc5CC[C@]4(C)[C@H]3CC[C@@]21C` is greater than or equal to 90%.
Output: 0 (no)

Input: Answer whether growth of `COc1ccc(N)cc1C(=O)Nc1cccc(-c2cc(=O)c3c(OC)c(OC)c(OC)cc3o2)c1` is greater than or equal to 90%.
Output: 0 (no)

Input: Answer whether growth of `COc1cc2cc(Oc3ccc(NC(=O)Nc4cccc(C(F)(F)F)c4)cc3)c(C)nc2cc1OCCN(C)C` is greater than or equal to 90%.
Output: 1 (yes)

Reference for the values: PubChem BioAssay (NCI)
